tested on: CCRF-CEM; assay: Cytotoxicity against human CEM cells; assay type: functional, cell-based
property name: IC50

Below, 2 compounds whose answers are already recorded.
chemical_smiles=CC[C@@]1(O)C(=O)OCc2c1cc1n(c2=O)Cc2cc3ccccc3nc2-1 property_name=IC50 result="0.005 µM"
chemical_smiles=O=c1oc2cc(O)ccc2c2c1[nH]c1ccc(O)cc12 property_name=IC50 result="38.5 µM"

Shift focus to the following entry.
For record COc1cc(-c2c3c4cc(OC)c(O)cc4oc(=O)c3n3ccc4cc(O)c(OC)cc4c23)ccc1O the listed IC50 is 15 µM

* * *

target: Glycogen synthase kinase-3 (Sus scrofa, UniProt B2LUN4+I6LNT8); assay: Inhibition of porcine brain GSK3alpha/beta using GS-1 as substrate
property name: IC50

chemical_smiles=COc1ccc(-c2ccc3c(c2)[nH]c2c(=O)oc4ccc(O)cc4c23)cc1 property_name=IC50 result="> 10 µM"
chemical_smiles=COc1cccc2[nH]c3c(=O)oc4ccc(O)cc4c3c12 property_name=IC50 result="3.3 µM"
chemical_smiles=O=c1oc2cc(O)ccc2c2c1[nH]c1ccccc12 property_name=IC50 result="0.44 µM"
chemical_smiles=O=c1oc2cc(O)ccc2c2c1[nH]c1ccc(O)cc12 property_name=IC50 result="0.42 µM"
chemical_smiles=O=c1oc2cc(O)ccc2c2c1[nH]c1cc(O)ccc12 property_name=IC50 result="10 µM"

Log: Glycogen synthase kinase-3 (Sus scrofa, UniProt B2LUN4+I6LNT8), compound O=c1oc2ccc(O)cc2c2c1[nH]c1cccc(-c3ccc(O)cc3)c12 , IC50 = > 10 µM

Log: Glycogen synthase kinase-3 (Sus scrofa, UniProt B2LUN4+I6LNT8), compound O=c1oc2ccc(O)cc2c2c1[nH]c1cc(O)ccc12 , IC50 = > 10 µM

Log: Glycogen synthase kinase-3 (Sus scrofa, UniProt B2LUN4+I6LNT8), compound CCCOc1cccc2[nH]c3c(=O)oc4ccc(O)cc4c3c12 , IC50 = 8.1 µM

Log: Glycogen synthase kinase-3 (Sus scrofa, UniProt B2LUN4+I6LNT8), compound O=c1oc2ccc(O)cc2c2c1[nH]c1ccc(O)cc12 , IC50 = 0.31 µM

Log: Glycogen synthase kinase-3 (Sus scrofa, UniProt B2LUN4+I6LNT8), compound O=c1oc2ccc(O)cc2c2c1[nH]c1ccc(C(F)(F)F)cc12 , IC50 = >= 10 uM

Log: Glycogen synthase kinase-3 (Sus scrofa, UniProt B2LUN4+I6LNT8), compound O=c1oc2ccc(O)cc2c2c1[nH]c1cccc(C(F)(F)F)c12 , IC50 = >= 10 uM

Log: Glycogen synthase kinase-3 (Sus scrofa, UniProt B2LUN4+I6LNT8), compound Cc1ccc2c(c1)[nH]c1c(=O)oc3ccc(O)cc3c12 , IC50 = > 10 µM

Log: Glycogen synthase kinase-3 (Sus scrofa, UniProt B2LUN4+I6LNT8), compound O=c1oc2ccccc2c2c1[nH]c1ccccc12 , IC50 = > 10 µM

Log: Glycogen synthase kinase-3 (Sus scrofa, UniProt B2LUN4+I6LNT8), compound O=c1oc2cc(O)c(O)cc2c2c1[nH]c1ccc(O)cc12 , IC50 = 1.3 µM

Log: Glycogen synthase kinase-3 (Sus scrofa, UniProt B2LUN4+I6LNT8), compound O=c1oc2ccc(O)cc2c2c1[nH]c1ccc(F)cc12 , IC50 = 2.5 µM

Log: Glycogen synthase kinase-3 (Sus scrofa, UniProt B2LUN4+I6LNT8), compound O=c1oc2ccc(O)cc2c2c1[nH]c1ccccc12 , IC50 = 0.38 µM

Log: Glycogen synthase kinase-3 (Sus scrofa, UniProt B2LUN4+I6LNT8), compound COc1cccc2oc(=O)c3[nH]c4ccccc4c3c12 , IC50 = > 10 µM
